Examples of compounds with documented Population Apoptotic (%) follow.
Tested on: Fibroblast
Method Summary: Multiplex assay against human fibroblast
Assay type: toxicity, cell-based
Condition Context: 48 h, 1 µM, compound concentration 1 uM, replicate 2
Non-standard residues stand in square brackets, D forms with d. Residues, ends and D or L forms follow the SMILES beside them.

Compound | Population Apoptotic (%)
CC(C)C[C@@H]1NC(=O)[C@@H](C(C)C)NC(=O)[C@@H]2CCCN2C(=O)[C@@H](CC(=O)O)NC(=O)[C@@H](Cc2c[nH]c3ccccc23)NC1=O [BQ-123] (cyclo(L[dW][dD]P[dV])) | 52%
Cc1nn(C)c2nc(NNC(=O)Nc3cc(Cl)nc(Cl)c3)cc(C(C)C)c12 | 57%
CN1CCN(c2ccc(Nc3c4ccccc4nc4ccccc34)cc2)CC1.Cl.Cl.O | 55%
COc1cc(Nc2ncc3c(n2)-c2ccc(Cl)cc2C(c2c(F)cccc2OC)=NC3)ccc1C(=O)O | 38%
CCc1nn2c(C)cc(C)nc2c1Cc1ccc(-c2nnc(C3CCNCC3)o2)cc1 | 62%
Nc1nc(CC(=O)Nc2ccc(CCNC[C@H](O)c3ccccc3)cc2)cs1 | 50%
CN(C)C/C=C/C(=O)Nc1ccc(C(=O)N2CCCC(Nc3ncc(Cl)c(-c4c[nH]c5ccccc45)n3)C2)cc1 (centres undefined) | 60%
COc1cc2nc(N3CCN(C(=O)COc4c(OC)cccc4C(C)C)CC3)nc(N)c2cc1OC.Cl.Cl | 42%
O=C(Nc1cc(-c2ccccc2)nn1-c1ccccc1F)c1ccc([N+](=O)[O-])cc1 | 55%
O=C(O)CCC/C=C\CC1C(O)CC(O)C1/C=C/C(O)COc1cccc(Cl)c1 (centres undefined) | 36%
Cl.Cl.OCCOCCN1CCN(C(c2ccccc2)c2ccc(Cl)cc2)CC1 (centres undefined) [HYDROXYZINE HYDROCHLORIDE] | 42%
Cc1c(Cc2ccc3ccccc3n2)c2cc(F)ccc2n1CC(=O)O | 61%
CCC(=O)OCC(=O)[C@@]1(OC(=O)CC)[C@@H](C)C[C@H]2[C@@H]3CCC4=CC(=O)C=C[C@]4(C)[C@@]3(Cl)[C@@H](O)C[C@@]21C [BECLOMETHASONE DIPROPIONATE] | 52%
CC(F)(F)CN1CCOc2c(nn(-c3ccccc3Cl)c2-c2ccc(Cl)cc2)C1=O | 40%

* * *

Tested on: U2OS
Method Summary: Multiplex assay against U2OS
Type: toxicity, cell-based
Condition Context: human, 12 h, 10 µM, compound concentration 10 uM, replicate 2
The reader will find reported Population Hoechst High Intensity Objects (%) values listed item by item below.
Reported Property: Population Hoechst High Intensity Objects (%)

Compound | Target System | Reported Measurement
O=c1ccc2ccc(OCCCCN3CCN(c4cccc5sccc45)CC3)cc2[nH]1 [BREXPIPRAZOLE] | U2OS | 9
COc1ccc2c(c1OCc1ccccc1)C[C@@H](C(=O)O)N(C(=O)C(c1ccccc1)c1ccccc1)C2 [OLODANRIGAN] | U2OS | 0
Cl.Cl.OCCOCCN1CCN(C(c2ccccc2)c2ccc(Cl)cc2)CC1 (stereo not drawn) [HYDROXYZINE HYDROCHLORIDE] | U2OS | 2
Cc1nn(C)c2nc(NNC(=O)Nc3cc(Cl)nc(Cl)c3)cc(C(C)C)c12 | U2OS | 4
COc1cc2nc(N3CCN(C(=O)COc4c(OC)cccc4C(C)C)CC3)nc(N)c2cc1OC.Cl.Cl | U2OS | 0
CCCCCCNC(=O)Nc1ccc(S(=O)(=O)Nc2ccc(CCNC[C@H](O)COc3ccc(O)cc3)cc2)cc1 [L-755507] | U2OS | 2
Cc1ccc(OCC(O)C(C)NC(C)C)c2c1CCC2.Cl (stereo not drawn) | U2OS | 0
CC(C)C[C@H](CO)Nc1nc(S[C@@H](C)c2ccccc2)nc2nc(N)sc12 [AZD-8797] | U2OS | 2
